B1: VPS39 (parent)
chain: ITEEKVCMVCKKKIGNSAFARYPN

- Variants of: B1
- protocol_details: protein stability index of a GFP-peptide fusion (GPS, HEK-293T) (PSI 1-6); higher = more stable;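 also: lentivirally expressed fusions sorted by FACS into six bins by GFP to DsRed ratio, PSI derived from sequencing read proportions per bin multiplied by bin number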
- settings: c terminus: a fixed tail appended
# protein stability index annotations
measured_parameter: protein stability index

1) V9F    2.27
2) V6M    2.81
3) I1Q    2.91
4) F19T    3.58
5) K12W    2.18
6) C7V    3.31
7) M8Q    3.22
8) E3H    1.94
9) C7R    2.54
10) C7W    2.02
11) N16P    2.81
12) N16R    2.29
13) C7K    3.1
14) P23L    2.57
15) E3W    1.96
16) T2N    2.79
17) N24D    2.6
18) V6Q    2.48
19) K5L    2.06
20) T2Q    3.19
21) G15A    1.39
22) K13H    2.01
23) I1A    2.97
24) K13S    2.36
25) N16C    2.8
26) A20I    3.49
27) N16Q    3.01
28) F19E    3.62
29) N16D    2.62
30) T2I    2.43
31) T2K    2.42
32) K12L    1.3
33) K12T    1.77
34) R21W    1.94
35) C7A    2.81
36) P23R    2.49
37) I14E    2.85
38) M8N    2.92
39) N24G    1.77
40) A20K    2.26
41) R21N    2.71
42) C10G    4.21
43) A20F    2.34
44) P23A    2.38
45) I1G    3.1
46) V6D    3.48
